Literature Ki values, system: ROCK2 (Homo sapiens, UniProt O75116).
Sequence (O75116 whole entry): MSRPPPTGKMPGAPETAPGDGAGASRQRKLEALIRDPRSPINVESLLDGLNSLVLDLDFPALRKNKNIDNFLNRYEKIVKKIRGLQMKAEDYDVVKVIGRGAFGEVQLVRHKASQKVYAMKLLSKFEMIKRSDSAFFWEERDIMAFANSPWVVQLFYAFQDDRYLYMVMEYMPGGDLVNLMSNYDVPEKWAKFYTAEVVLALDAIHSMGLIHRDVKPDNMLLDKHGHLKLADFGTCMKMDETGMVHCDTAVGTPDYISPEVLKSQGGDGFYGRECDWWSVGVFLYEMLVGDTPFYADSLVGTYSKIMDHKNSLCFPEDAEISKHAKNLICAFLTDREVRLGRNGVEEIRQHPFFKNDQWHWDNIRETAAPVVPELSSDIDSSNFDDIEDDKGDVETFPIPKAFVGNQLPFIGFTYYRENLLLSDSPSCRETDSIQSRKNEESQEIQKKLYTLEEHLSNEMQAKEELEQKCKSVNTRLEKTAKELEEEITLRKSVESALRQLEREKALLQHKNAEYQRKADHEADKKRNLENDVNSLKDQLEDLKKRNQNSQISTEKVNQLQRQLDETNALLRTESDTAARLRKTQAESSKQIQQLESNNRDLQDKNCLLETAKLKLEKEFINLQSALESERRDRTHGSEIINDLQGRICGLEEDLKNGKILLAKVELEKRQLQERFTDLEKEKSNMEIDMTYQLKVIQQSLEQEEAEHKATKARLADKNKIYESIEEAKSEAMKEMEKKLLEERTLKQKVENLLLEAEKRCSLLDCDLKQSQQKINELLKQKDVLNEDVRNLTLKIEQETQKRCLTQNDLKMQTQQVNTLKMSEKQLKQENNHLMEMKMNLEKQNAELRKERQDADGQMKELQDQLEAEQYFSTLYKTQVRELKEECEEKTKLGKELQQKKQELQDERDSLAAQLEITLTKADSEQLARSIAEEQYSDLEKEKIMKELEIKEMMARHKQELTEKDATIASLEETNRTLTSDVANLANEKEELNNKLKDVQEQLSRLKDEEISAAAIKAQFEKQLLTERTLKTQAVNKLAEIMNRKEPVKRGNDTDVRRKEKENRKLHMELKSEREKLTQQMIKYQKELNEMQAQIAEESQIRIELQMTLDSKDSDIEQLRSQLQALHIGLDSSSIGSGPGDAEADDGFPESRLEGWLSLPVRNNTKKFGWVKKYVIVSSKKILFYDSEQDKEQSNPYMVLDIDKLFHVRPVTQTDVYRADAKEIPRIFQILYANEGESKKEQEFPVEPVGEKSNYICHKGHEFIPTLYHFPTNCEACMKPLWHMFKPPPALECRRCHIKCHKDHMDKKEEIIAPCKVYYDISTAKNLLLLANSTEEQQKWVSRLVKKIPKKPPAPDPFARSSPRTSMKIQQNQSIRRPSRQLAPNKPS

Item: Cc1cnccc1-c1ccc(C(=O)N[C@H](C)c2cccc(C(F)(F)F)c2)cc1 | System: ROCK2 (Homo sapiens, UniProt O75116) | Ki: < 50 nM

Item: COc1cccc([C@@H](C)NC(=O)c2ccc(-c3ccncc3F)cc2OC)c1 | System: ROCK2 (Homo sapiens, UniProt O75116) | Ki: < 50 nM

Item: COc1cccc([C@@H](C)NC(=O)c2ccc(-c3ccncc3)cc2C)c1 | System: ROCK2 (Homo sapiens, UniProt O75116) | Ki: < 50 nM

Item: NCc1ccc(Oc2ccnc3[nH]cc(-c4ccnc(NCc5ccccc5)n4)c23)c(F)c1 | System: ROCK2 (Homo sapiens, UniProt O75116) | Ki: < 3 nM

Item: Cc1cnccc1-c1ccc(C(=O)NC(CO)c2cc(Cl)cc(Cl)c2)cc1 (centres unmarked) | System: ROCK2 (Homo sapiens, UniProt O75116) | Ki: 50 to 500 nM

Item: COc1cccc([C@@H](C)NC(=O)c2ccc(-c3cc(F)ncc3C)cc2)c1 | System: ROCK2 (Homo sapiens, UniProt O75116) | Ki: < 50 nM

Item: O=C(NC(CN1CCCC1)c1ccccc1)c1ccc(-c2ccncc2)cc1 (centres unmarked) | System: ROCK2 (Homo sapiens, UniProt O75116) | Ki: < 50 nM

Item: Cc1c[nH]c2nccc(Oc3ccc(C[C@H](N)C(=O)N4CCc5ncccc5C4)cc3F)c12 | System: ROCK2 (Homo sapiens, UniProt O75116) | Ki: < 3 nM

----------
Literature pKi values, system: ROCK2 (Homo sapiens, UniProt O75116).
pKi: −log10 of the molar value.

Item: NCc1ccc(Oc2ccnc3[nH]cc(-c4cnn(CC5CCOCC5)c4)c23)c(F)c1 | System: ROCK2 (Homo sapiens, UniProt O75116) | pKi: > 8.52

Item: CC(C)COc1cccc(C(C)NC(=O)c2ccc(-c3ccncc3)cc2)c1 (stereo not shown) | System: ROCK2 (Homo sapiens, UniProt O75116) | pKi: > 7.30

Item: Cc1c[nH]c2ncnc(Oc3ccc(C[C@H](N)C(=O)N4CC[C@H](S(=O)(=O)c5ccccc5)C4)cc3F)c12 | System: ROCK2 (Homo sapiens, UniProt O75116) | pKi: > 8.52

Item: Cc1c[nH]c2nccc(Oc3ccc(CC(CN)c4nc(CCc5ccccc5)no4)cc3F)c12 (stereo not shown) | System: ROCK2 (Homo sapiens, UniProt O75116) | pKi: > 8.30

----------
Literature pKi values, system: ROCK2 (Homo sapiens).
pKi: −log10 of the molar value.

Item: Cc1c[nH]c2nccc(Oc3ccc(C[C@H](N)C(=O)NC4(C(=O)NCCO)CCCCC4)cc3F)c12 | System: ROCK2 (Homo sapiens) | pKi: > 8.52

Item: COC[C@@H](NC(=O)c1ccc(-c2ccncc2)cc1)c1ccccc1 | System: ROCK2 (Homo sapiens) | pKi: > 7.30

Item: Cc1c[nH]c2nccc(Oc3ccc(C[C@H](N)C(=O)NC4CCN(C5CCOC5)CC4)cc3F)c12 (some centres unmarked) | System: ROCK2 (Homo sapiens) | pKi: > 8.52

Item: O=C(NC(CN1CCCCC1)c1ccccc1)c1ccc(-c2ccncc2)cc1 (centres unmarked) | System: ROCK2 (Homo sapiens) | pKi: > 7.30

Item: c1ccc(CNc2cccc(-c3c[nH]c4nccc(Oc5ccc6c(c5)CNCC6)c34)n2)cc1 | System: ROCK2 (Homo sapiens) | pKi: < 7.52

Item: Cc1ccc(C(C)NC(=O)c2ccc(-c3ccncc3)cc2)o1 (centres unmarked) | System: ROCK2 (Homo sapiens) | pKi: 6.30 to 7.30

Item: Cc1c[nH]c2nccc(Oc3ccc(C[C@H](N)c4nc(-c5cccnc5)no4)cc3F)c12 | System: ROCK2 (Homo sapiens) | pKi: 7.30 to 8.30

Item: CNC(=O)[C@@H](N)Cc1ccc(Oc2ccnc3[nH]cc(C)c23)c(F)c1 | System: ROCK2 (Homo sapiens) | pKi: > 8.52

----------
Literature pKi values, system: ROCK2 (Homo sapiens).
pKi: −log10 of the molar value.

Item: O=C(Nc1ccc(-c2cccc3c2CNC3=O)cc1)c1ccc2c(c1)OCCO2 | System: ROCK2 (Homo sapiens) | pKi: 6.48

Item: C[C@@H](NC(=O)c1ccc(-c2ccncc2)cc1)c1ccc(F)cc1 | System: ROCK2 (Homo sapiens) | pKi: > 7.30

Item: Cc1c[nH]c2nccc(Oc3ccc(C[C@H](N)C(N)=O)cc3F)c12 | System: ROCK2 (Homo sapiens) | pKi: > 8.52

Item: O=C(Nc1ccc(-c2cccc3c2CNC3=O)cc1)c1cccc(S(=O)(=O)N2CCOCC2)c1 | System: ROCK2 (Homo sapiens) | pKi: 8.06

Item: Cc1c[nH]c2nccc(Oc3ccc(C[C@H](N)C(=O)N4C[C@@H]5CN(C6CC6)C[C@@H]5C4)cc3F)c12 | System: ROCK2 (Homo sapiens) | pKi: > 8.52

Item: CCN1CCC(NC(=O)[C@@H](N)Cc2ccc(Oc3ccnc4[nH]cc(C)c34)c(F)c2)CC1 | System: ROCK2 (Homo sapiens) | pKi: > 8.52

Item: O=C(NC(CN1CCOCC1)c1ccccc1)c1ccc(-c2ccncc2)cc1 (stereo not shown) | System: ROCK2 (Homo sapiens) | pKi: > 7.30

Item: O=C(Nc1ccc(-c2cccc3c2CNC3=O)cc1)c1ccc(N2CCOCC2)nc1 | System: ROCK2 (Homo sapiens) | pKi: 6.70

Item: COCCN1CCC(NC(=O)[C@@H](N)Cc2ccc(Oc3ccnc4[nH]cc(C)c34)c(F)c2)CC1 | System: ROCK2 (Homo sapiens) | pKi: > 8.52

Item: Cc1c[nH]c2nccc(Oc3ccc(C[C@H](N)C(=O)N4CCc5cnccc5C4)cc3F)c12 | System: ROCK2 (Homo sapiens) | pKi: > 8.52

Item: Cc1c[nH]c2ncnc(Oc3ccc(C[C@H](N)C(=O)NC4(C(N)=O)CCCCC4)cc3F)c12 | System: ROCK2 (Homo sapiens) | pKi: > 8.52

Item: Cc1c[nH]c2nccc(Oc3ccc(C[C@H](N)C(=O)NC4CCN(C5CCC5)CC4)cc3F)c12 | System: ROCK2 (Homo sapiens) | pKi: > 8.52

Item: Cc1c[nH]c2nccc(Oc3ccc(C[C@H](N)C(=O)NC4CCCN(C)C4)cc3F)c12 (single isomer, unassigned) | System: ROCK2 (Homo sapiens) | pKi: 7.52 to 8.52

Item: COc1cc(-c2ccncc2)ccc1C(=O)N[C@H](C)c1ccccc1 | System: ROCK2 (Homo sapiens) | pKi: > 7.30

Item: C[C@@H](NC(=O)c1ccc(-c2ccncc2)cc1)c1cc(C(F)(F)F)cc(C(F)(F)F)c1 | System: ROCK2 (Homo sapiens) | pKi: 6.30 to 7.30

Item: O=C(NC(CO)c1cccc2ccccc12)c1ccc(-c2ccncc2)cc1 (stereo not shown) | System: ROCK2 (Homo sapiens) | pKi: > 7.30

----------
pKi: −log10 of the molar value.
Literature pKi values, system: ROCK2 (Homo sapiens, UniProt O75116).

NC(C(=O)Nc1cc(-c2c[nH]c3nccc(Oc4ccc5c(c4)CNCC5)c23)ccn1)c1ccccc1 (centres unmarked) has a reported pKi of > 8.52

COc1cccc([C@@H](C)NC(=O)c2ccc(-c3ccncc3)c(OC)c2)c1 has a reported pKi of > 7.30

O=C(N[C@H](CO)Cc1ccc(O)cc1)c1ccc(-c2ccncc2)cc1 has a reported pKi of 6.30 to 7.30

CC(NC(=O)c1ccc(-c2ccncc2)cc1)c1ccco1 (centres unmarked) has a reported pKi of 6.30 to 7.30

Cc1c[nH]c2ncnc(Oc3ccc(C[C@H](N)C(=O)NC4CCN(C5CC5)CC4)cc3F)c12 has a reported pKi of > 8.52

Cc1c[nH]c2nccc(Oc3ccc(C[C@H](N)C(=O)NC4(C(N)=O)CCN(C5CC5)CC4)cc3F)c12 has a reported pKi of > 8.52

COCCc1noc([C@@H](N)Cc2ccc(Oc3ccnc4[nH]cc(C)c34)c(F)c2)n1 has a reported pKi of 7.30 to 8.30

NCc1ccc(Oc2ccnc3[nH]cc(-c4ccnc(NCc5ccccc5)c4)c23)cc1 has a reported pKi of > 8.52

----------
pKi: −log10 of the molar value.
Literature pKi values, system: ROCK2 (Homo sapiens).

Item: COc1cc(-c2ccncc2)ccc1C(=O)N[C@H](C)c1cccc2ccccc12 | System: ROCK2 (Homo sapiens) | pKi: > 7.30

Item: CNC(=O)C1(NC(=O)[C@@H](N)Cc2ccc(Oc3ncnc4[nH]cc(C)c34)c(F)c2)CCCCC1 | System: ROCK2 (Homo sapiens) | pKi: > 8.52

Item: Cc1ccc(C(CN)NC(=O)c2ccc(-c3ccncc3)cc2)cc1 (centres unmarked) | System: ROCK2 (Homo sapiens) | pKi: > 7.30

Item: C[C@@H](NC(=O)c1ccc(-c2ccncc2)cc1)c1ccccc1C(F)(F)F | System: ROCK2 (Homo sapiens) | pKi: 6.30 to 7.30

Item: CN(C)Cc1ccc(NC(=O)c2cccc([C@@H]3C[C@H]3C(=O)Nc3ccc4cncc(Cl)c4c3)c2)nc1 | System: ROCK2 (Homo sapiens) | pKi: 9.00

Item: Cc1cccc(S(=O)(=O)C2CCN(C(=O)[C@@H](N)Cc3ccc(Oc4ccnc5[nH]cc(C)c45)c(F)c3)CC2)c1 | System: ROCK2 (Homo sapiens) | pKi: > 8.52

Item: Cc1cnccc1-c1ccc(C(=O)NC(CO)c2cccc3ccccc23)cc1 (centres unmarked) | System: ROCK2 (Homo sapiens) | pKi: > 7.30

Item: COc1cc(-c2ccncc2)ccc1C(=O)N[C@H](CCO)c1ccccc1 | System: ROCK2 (Homo sapiens) | pKi: > 7.30
